// data source = ChEMBL document CHEMBL1141462

assay: Cytotoxicity against C8166 cells by MTT assay; format: cell-based; conditions: human
Here, each record is paired with measured CC50 data.
State the answer as a number, implicitly in µM.

Some entries whose results are on file:
smiles-record	CC50 / µM
C[C@@H]1C[C@H](O)[C@@]2(C)C(CO)=CCC[C@@H]2[C@@]1(C)CC(=O)O	709
C[C@@H]1C[C@H](O)[C@@]2(C)C(C=O)=CCC[C@@H]2[C@@]1(C)CC(=O)O	713

Moving on to the next compound.
# input compound: C=C[C@](C)(O)CC[C@@]1(C)[C@H](C)C[C@H](O[C@@H]2O[C@@H](C)[C@H](O[C@@H]3O[C@H](CO)[C@@H](OC(C)=O)[C@H](O)[C@H]3O)[C@@H](O)[C@H]2O)[C@@]2(C)C(C)=CCC[C@H]12 ; wanted: its CC50
305
